Data credit: PubChem BioAssay (NCI)

Test system: SF-295 CNS
Test: NCI-60 one-dose screen, 48 h (100 = growth as untreated, 0 = no growth, -100 = all killed)
Settings: 10 µM
Protocol: Cells are grown in 96 well plates and exposed to the test compound for 48 hours. Compounds are tested at a single concentration, which is 10^-5 M for most compounds. The reported endpoint is percent growth (GI% or GIPRCNT), where numbers from 0 - 100% represent growth inhibition, and numbers from -100% - 0 represent cell death. For example, a value of 40 represents 60% growth inhibition. A value of 0 means no net growth occurred over the course of the experiment. […]
Compounds without any hit were thinned out: in the full panel of roughly 83,000, 20% have a hit.
property.name: growth (%)
# number only, unit % dropped from output

Recorded growth, per entry:
CC(C)(C)Nc1nc2cc(Cl)c(Cl)cc2nc1S(C)(=O)=O : 91.1
CC(=O)Nc1ccc(-c2cn(-c3cccc(C(=O)Nc4cccc(OC(F)(F)F)c4)c3)nn2)cn1 : 87.4
O=C1Nc2cc(Cl)ccc2/C1=C/c1ccc(OCc2ccc(Br)cc2F)cc1 : -94.9
Nc1nc(Nc2ccc(Cl)cc2)nn1Cc1cccc(Br)c1 : 44.7
OCCNc1oc(-c2ccccc2)nc1[P+](c1ccccc1)(c1ccccc1)c1ccccc1 : 20.7
C=C1CCC2C3(C)COC(c4cccc(F)c4)OC3CCC2(C)C1CC(O)C1=CCOC1=O (stereo not drawn) : 74.5
O=C(N/C(=C1/OCCN1Cc1ccccc1)[P+](c1ccccc1)(c1ccccc1)c1ccccc1)c1ccccc1 : 31.4
CC1(C)[C@@H](NCO)CC[C@]2(C)[C@H]3C(=O)C=C4[C@@H]5C[C@](C)(CO)CC[C@]5(C)CC[C@@]4(C)[C@]3(C)CC[C@@H]12 : 2.19
CC1(c2ccccc2)NC(=O)N(CC(=O)Nc2ccc(C(=O)/C=C/c3ccc(Br)cc3)cc2)C1=O (stereo not drawn) : 37
COc1ccc(/C(C)=N/N=C2C(=O)N(C)c3ccc(Br)cc32)cc1S(N)(=O)=O : 47.4

Reported growth for O=C1CCC(N2Cc3c(NCc4ccc(-c5ccccc5)cc4)cccc3C2=O)C(=O)N1 (stereo not drawn) : what is it?
81.9

Reported growth for "COc1ccc2[nH]c(=O)c(CSc3nccc(-c4ccc(Cl)cc4)n3)cc2c1" : what is it?
-20.3

Reported growth for "CCCn1c(=O)c2[nH]c(-c3ccc(OCc4nc5ccc(C#N)cc5[nH]4)cc3)nc2n(CCC)c1=O" : what is it?
76.7

Reported growth for "CC(C)(C)c1ccc(NCc2cn(-c3ccc(C(=O)O)cc3)nc2-c2ccc(C#N)cc2)cc1" : what is it?
19.2

Reported growth for "C=C(C)[C@@H]1CC[C@]2(COP(=O)(OCC)OCC)CC[C@]3(C)[C@H](CC[C@@H]4[C@@](C)(CCCN)[C@H](C(=C)C)CC[C@]43C)[C@@H]12" : what is it?
24.7

Reported growth for "O=c1oc2ccccc2cc1-c1csc(N=Nc2c(O)[nH]c3ccc(Br)cc23)n1" : what is it?
39.5

Reported growth for COc1ccc(C2NC(=S)NC(C)=C2C(=O)OC(C)C)cc1OC (stereo not drawn) : what is it?
97.4

Reported growth for "CC1(C)CC[C@]2(C(=O)Nc3ccccc3)CC[C@]3(C)C(=CC[C@@H]4[C@@]5(C)CC[C@H](N)C(C)(C)[C@@H]5CC[C@]43C)[C@H]2C1" : what is it?
52.7
